Value source: ChEMBL document CHEMBL2321672

- procedure details: Cytotoxicity against HEK293 cells assessed as cell viability at 100 uM after 24 hrs by MTT assay relative to control
- Format: cell-based
- experimental parameters: human, read-out: Activity
metric: viability at 24 h, 100 µM (%)
Give the value in % but do not write % after it.

Please review the entries below; each comes with its answer.
compound=NCc1ccc(CNC(=O)Cc2ccc(-c3cccc(C(F)(F)F)c3)cc2)cc1 metric="viability at 24 h, 100 µM" unit_abbrev=% readout_value=46
compound=NCc1ccc(CNC(=O)Cc2ccc(-c3ccccc3)cc2)cc1 metric="viability at 24 h, 100 µM" unit_abbrev=% readout_value=42
compound=NCc1ccc(CNC(=O)Cc2ccc(-c3c(F)c(F)c(F)c(F)c3F)cc2)cc1 metric="viability at 24 h, 100 µM" unit_abbrev=% readout_value=68
compound=NCc1ccc(CNC(=O)Cc2ccc(-c3ccccc3)c(O)c2)cc1 metric="viability at 24 h, 100 µM" unit_abbrev=% readout_value=50

input: Need viability at 24 h, 100 µM of O=C(Cc1ccc(-c2ccccc2)cc1)NCc1ccc(CN2CCCC2)cc1 , thanks.
output: 24

input: Continue with CC(C(=O)NCc1ccc(CN)cc1)c1ccc(-c2ccccc2)c(F)c1 (centres undefined)
output: 11

input: Continue with O=C(Cc1ccc(-c2ccccc2)cc1)NCc1ccc(CN2Cc3ccccc3C2)cc1
output: 80

input: Continue with CC[N+](CC)(CC)Cc1ccc(CNC(=O)Cc2ccc(-c3ccccc3)cc2)cc1
output: 40

input: Continue with O=C(Cc1ccc(-c2cc(C(F)(F)F)cc(C(F)(F)F)c2)cc1)NCc1ccccc1
output: 76
